# Target Of Assay: μ opioid receptor (Cavia porcellus, UniProt A0ACM8Q262)
# Sequence (A0ACM8Q262 1-400): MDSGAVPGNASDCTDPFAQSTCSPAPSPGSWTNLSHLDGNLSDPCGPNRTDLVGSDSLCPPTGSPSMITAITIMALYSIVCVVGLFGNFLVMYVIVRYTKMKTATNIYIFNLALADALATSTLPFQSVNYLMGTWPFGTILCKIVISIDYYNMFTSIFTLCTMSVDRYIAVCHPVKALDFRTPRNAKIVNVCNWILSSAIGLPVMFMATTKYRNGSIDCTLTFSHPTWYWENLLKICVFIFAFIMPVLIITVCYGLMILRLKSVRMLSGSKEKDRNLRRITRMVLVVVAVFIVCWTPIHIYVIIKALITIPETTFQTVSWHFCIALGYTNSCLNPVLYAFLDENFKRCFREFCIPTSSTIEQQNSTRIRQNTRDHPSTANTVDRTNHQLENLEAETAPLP
# Experimental Protocol: Binding to μ sites (3H-DAGO), receptor affinity study
# Design: species or system guinea pig
# Conditions Used: guinea pig brain homogenate; 3H-DAGO; 40 min, 25° C.; read-out: OPIATE RECEPTORS BINDING ki MU
pKi: −log10 of the molar value.
Recorded Endpoint: pKi

[ask] Give the reported value of pKi for this record: O=C(Cc1ccc(Cl)c(Cl)c1)N1CCc2[nH]cnc2C1CN1CCCC1 (stereo not shown)
[reply] < 6.00

* * *

# System: mice (tail-flick)
# Experimental Protocol: animal or person
# Type: in vivo
# Conditions Used: Mus musculus, sc, 0.5 h, read-out: ANALGESIA TAIL-FLICK ED50 (a)
Counter-ions that a name gives are not always drawn.
Recorded Endpoint: ED50 (mg/kg)
I only need the number, in mg/kg, no unit after it.

[ask] Give the reported value of ED50 for this record: CC(C1c2ccsc2CCN1C(=O)Cc1ccc(Cl)c(Cl)c1)N(C)C.Cl (single isomer, unassigned) [Example 18]
[reply] 0.824

***
[ask] Give the reported value of ED50 for this record: Cl.O.O=C(Cc1ccc(Cl)c(Cl)c1)N1CCc2sccc2C1CN1CCCC1 (stereo not shown) [Example 3]
[reply] 0.019

[ask] Give the reported value of ED50 for this record: O=C(Cc1ccc(Cl)c(Cl)c1)N1CCc2sccc2C1CN1CCCC1 (single isomer, unassigned) [Example 9, tartrate hemihydrate]
[reply] 0.007

[ask] Give the reported value of ED50 for this record: Cl.O=C(Cc1ccc(C(F)(F)F)cc1)N1CCc2sccc2C1CN1CCCC1 (stereo not shown) [Example 4]
[reply] 0.018
